Data origin: patent US20020137929A1

# Herbicidal rating ZEAMX values compiled below
# Test system: ZEAMX (Corn, Field)
# Test Method Notes: Postemergence herbicidal evaluation
# Type: in vivo, Zea mays
# Assay Setup: postemergence, rate 0.0313 kg/ha

CCOC(=O)CN1C(=O)C(OC)SC1=Nc1cc(-n2c(=O)cc(C(F)(F)F)n(C)c2=O)c(F)cc1Cl (stereo not shown) = 7.0
CC(C)S(=O)(=O)NC(=O)CC1SC(=Nc2cc(-n3c(=O)cc(C(F)(F)F)n(C)c3=O)c(F)cc2Cl)N(C)C1=O (stereo not shown) = 5.5
Cn1c(C(F)(F)F)cc(=O)n(-c2cc(N=C3SCC(=O)N3Cc3cccc(Cl)c3)c(Cl)cc2F)c1=O = 4.0

Now consider the entry below.
Task item: Supply measured Herbicidal rating ZEAMX of Cn1c(C(F)(F)F)cc(=O)n(-c2cc(N=C3SCC(=O)N3Cc3ccc(F)cc3)c(Cl)cc2F)c1=O in your reply.
Reply: 4.5
